- Test system: 323965-272-R-J2-PDC complex spheroid growth, % test/control;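 note: compound exposure lasted 7 days starting three days after spheroid seeding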
- test-details: Anticancer human tumor 323965-272-R-J2-PDC patient-derived pancreatic carcinoma cell line growth inhibition [Asc]
- applied-conditions: curve of first compound; second compound 0.00316 µM
reported-metric: IC50

Field IC50 (entry CCN1CCN(Cc2ccc(Nc3ncc(F)c(-c4cc(F)c5nc(C)n(C(C)C)c5c4)n3)nc2)CC1 + CNC(C)C(=O)NC1CN(S(=O)(=O)c2cccc(S(=O)(=O)N3CCC4CCC(C(=O)NC(c5ccccc5)c5ccccc5)N4C(=O)C(NC(=O)C(C)NC)C3)c2)CCC2CCC(C(=O)NC(c3ccccc3)c3ccccc3)N2C1=O ) reads > 1000 nM

In plain terms, CCN1C(C(=O)NC23CCC(C(=O)O)(CC2)CC3)C(c2cccc(Cl)c2F)C2(C(=O)Nc3cc(Cl)ccc32)C12CCCCC2 (configuration not stated) + CNC(C)C(=O)NC1CN(S(=O)(=O)c2cccc(S(=O)(=O)N3CCC4CCC(C(=O)NC(c5ccccc5)c5ccccc5)N4C(=O)C(NC(=O)C(C)NC)C3)c2)CCC2CCC(C(=O)NC(c3ccccc3)c3ccccc3)N2C1=O has a documented IC50 of > 3000 nM

For this molecule ( COc1c(OCCCN2CCOCC2)ccc2c3n(c(=NC(=O)c4cnc(N)nc4)nc12)CCN3 + CNC(C)C(=O)NC1CN(S(=O)(=O)c2cccc(S(=O)(=O)N3CCC4CCC(C(=O)NC(c5ccccc5)c5ccccc5)N4C(=O)C(NC(=O)C(C)NC)C3)c2)CCC2CCC(C(=O)NC(c3ccccc3)c3ccccc3)N2C1=O ), measured IC50 is 129 nM

C#Cc1c(F)ccc2cc(O)cc(-c3ncc4c(N5CC6CCC(C5)N6)nc(OCC56CCCN5CC(F)C6)nc4c3F)c12 (configuration not stated) + CNC(C)C(=O)NC1CN(S(=O)(=O)c2cccc(S(=O)(=O)N3CCC4CCC(C(=O)NC(c5ccccc5)c5ccccc5)N4C(=O)C(NC(=O)C(C)NC)C3)c2)CCC2CCC(C(=O)NC(c3ccccc3)c3ccccc3)N2C1=O yielded IC50 of > 10000 nM

So, O=C(c1cc(Cc2n[nH]c(=O)c3ccccc23)ccc1F)N1CCN(C(=O)C2CC2)CC1 + CNC(C)C(=O)NC1CN(S(=O)(=O)c2cccc(S(=O)(=O)N3CCC4CCC(C(=O)NC(c5ccccc5)c5ccccc5)N4C(=O)C(NC(=O)C(C)NC)C3)c2)CCC2CCC(C(=O)NC(c3ccccc3)c3ccccc3)N2C1=O ? Its IC50 was < 31.6 nM

Value of IC50 reported for the molecule NC1CCC(NC2CC2c2ccccc2)CC1 (configuration not stated) + CNC(C)C(=O)NC1CN(S(=O)(=O)c2cccc(S(=O)(=O)N3CCC4CCC(C(=O)NC(c5ccccc5)c5ccccc5)N4C(=O)C(NC(=O)C(C)NC)C3)c2)CCC2CCC(C(=O)NC(c3ccccc3)c3ccccc3)N2C1=O is > 100 nM

Recorded IC50 (molecule Cn1ncnc1[C@H]1c2n[nH]c(=O)c3cc(F)cc(c23)N[C@@H]1c1ccc(F)cc1 + CNC(C)C(=O)NC1CN(S(=O)(=O)c2cccc(S(=O)(=O)N3CCC4CCC(C(=O)NC(c5ccccc5)c5ccccc5)N4C(=O)C(NC(=O)C(C)NC)C3)c2)CCC2CCC(C(=O)NC(c3ccccc3)c3ccccc3)N2C1=O ): < 0.316 nM

# credit: PubChem BioAssay AID1963425
